B1: Pistol ribozyme (parent)
chain: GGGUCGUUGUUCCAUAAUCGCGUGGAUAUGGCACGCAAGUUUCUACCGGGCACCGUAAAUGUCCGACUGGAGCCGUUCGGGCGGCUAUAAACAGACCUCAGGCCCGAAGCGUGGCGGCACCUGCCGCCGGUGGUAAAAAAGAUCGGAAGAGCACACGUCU

# Variants of: B1
# measurement-description: aptazyme ON/OFF ratio, guanine; higher = stronger switching; co-transcriptional cleavage with and without guanine
Entries annotated with measured aptazyme ON/OFF ratio
Field format: numeric only.

// below: answered variants
variant-annotation	experimental-value
U8G G9C U10C U11A C13G	1.05
U7C U8C U11C	2.42
U7C U8A G9C U10G U11A C13G	1.11
U8A G9U U11G C12U C13U	1.5
U7C U10C U11C C12G	1.28

Which value of aptazyme ON/OFF ratio has been reported for U8C G9C U10A U11C C12U C13A in the records?
1.19

Which value of aptazyme ON/OFF ratio has been reported for U7G U8C G9A U10C C13U in the records?
1.58

Which value of aptazyme ON/OFF ratio has been reported for U7C U8A G9U U10A U11A in the records?
1.38

Which value of aptazyme ON/OFF ratio has been reported for U8G U10C U11A C12U C13U in the records?
1.22
